Here, each record is paired with measured TGI data.
# Tested on: NCI-H460 lung
# TEST NAME: NCI tumour cell line growth inhibition, 48 h
MEASUREMENT TYPE: TGI

[
  {
    "MOLECULE": "COc1ccccc1N1CCN(CCCNC(=O)c2cc(Cl)c(N)c(Cl)c2)CC1",
    "MEASUREMENT TYPE": "TGI",
    "VALUE REPORTED": "> 100 µM"
  },
  {
    "MOLECULE": "Cc1ccc(S(=O)(=O)NC(=O)NC2=NC(C)(C)N(c3ccc(Cl)c(Cl)c3)C(N)=N2)cc1",
    "MEASUREMENT TYPE": "TGI",
    "VALUE REPORTED": "> 100 µM"
  },
  {
    "MOLECULE": "O=C(CCCN1CCC2(CC1)C(=NC1CCCCC1)NC(=O)N2c1ccccc1)c1ccc(F)cc1",
    "MEASUREMENT TYPE": "TGI",
    "VALUE REPORTED": "54.5 µM"
  },
  {
    "MOLECULE": "c1ccc(-c2cnc(-c3ccc(-c4ncc(-c5ccccc5)o4)cc3)o2)cc1",
    "MEASUREMENT TYPE": "TGI",
    "VALUE REPORTED": "> 100 µM"
  },
  {
    "MOLECULE": "COc1ccc(/C=C(/c2ccccc2)[N+](=O)[O-])cc1",
    "MEASUREMENT TYPE": "TGI",
    "VALUE REPORTED": "4.16 µM"
  },
  {
    "MOLECULE": "S=C1SC2=Nc3ccccc3CN2C2=NCCN12",
    "MEASUREMENT TYPE": "TGI",
    "VALUE REPORTED": "> 100 µM"
  },
  {
    "MOLECULE": "COc1cc(C=C2C(=O)NC(=S)NC2=O)cc(OC)c1OC",
    "MEASUREMENT TYPE": "TGI",
    "VALUE REPORTED": "> 100 µM"
  },
  {
    "MOLECULE": "COc1ccc2c(Oc3ccc(NC(=O)c4c(C)n(CC(C)(C)O)n(-c5ccccc5)c4=O)nc3)ccnc2c1",
    "MEASUREMENT TYPE": "TGI",
    "VALUE REPORTED": "> 100 µM"
  },
  {
    "MOLECULE": "Nc1nc(N)c2cc(CNc3ccc(C(=O)NC(CC(=O)O)C(=O)O)c(Cl)c3)ccc2n1 (stereo unspecified)",
    "MEASUREMENT TYPE": "TGI",
    "VALUE REPORTED": "72.6 µM"
  },
  {
    "MOLECULE": "Clc1ccc(Cl)c(SCCCN2CCNCC2)c1",
    "MEASUREMENT TYPE": "TGI",
    "VALUE REPORTED": "42.1 µM"
  },
  {
    "MOLECULE": "Nc1ccc2nc3n(c2c1)C(=O)c1ccccc1-3",
    "MEASUREMENT TYPE": "TGI",
    "VALUE REPORTED": "> 100 µM"
  },
  {
    "MOLECULE": "N.N.NCCCCCCCCCN.O=C([O-])CC(=O)[O-].O=C([O-])CC(=O)[O-].[Pt+4].[Pt+4]",
    "MEASUREMENT TYPE": "TGI",
    "VALUE REPORTED": "> 100 µM"
  },
  {
    "MOLECULE": "O=C1C(Cl)=C(Nc2ccccc2O)C(=O)N1Cc1ccccc1",
    "MEASUREMENT TYPE": "TGI",
    "VALUE REPORTED": "42.5 µM"
  },
  {
    "MOLECULE": "CC(C)(C)OC(=O)N1N=NC2C1C1CC(OCc3ccccc3)(OCc3ccccc3)C2O1 (stereo unspecified)",
    "MEASUREMENT TYPE": "TGI",
    "VALUE REPORTED": "> 100 µM"
  },
  {
    "MOLECULE": "Cc1cn([C@H]2C[C@](C)(CO)N(C)O2)c(=O)[nH]c1=O",
    "MEASUREMENT TYPE": "TGI",
    "VALUE REPORTED": "> 100 µM"
  },
  {
    "MOLECULE": "CC1=C(c2cc(C(=O)Nc3ccc(Cl)cc3)nc(=S)[nH]2)Sc2ccccc2N1",
    "MEASUREMENT TYPE": "TGI",
    "VALUE REPORTED": "> 100 µM"
  },
  {
    "MOLECULE": "S=C1CC(c2ccccc2)Sc2ccc(Cl)cc2N1 (stereo unspecified)",
    "MEASUREMENT TYPE": "TGI",
    "VALUE REPORTED": "> 100 µM"
  },
  {
    "MOLECULE": "CCOC(=O)[C@@H]1ON2O[C@@H](OC3CCCC3(c3ccccc3)c3ccccc3)C[C@H]3OC(=O)[C@@H]1C32 (stereo partly specified)",
    "MEASUREMENT TYPE": "TGI",
    "VALUE REPORTED": "> 100 µM"
  },
  {
    "MOLECULE": "O=C(O)C12CC3(C(=O)O)CC(C(=O)O)(CC(C(=O)O)(C1)C3=O)C2=O",
    "MEASUREMENT TYPE": "TGI",
    "VALUE REPORTED": "> 100 µM"
  },
  {
    "MOLECULE": "O/C(=C\\c1nc2ccccc2nc1NC12CC3CC(CC(C3)C1)C2)c1ccc(Br)cc1",
    "MEASUREMENT TYPE": "TGI",
    "VALUE REPORTED": "> 10 µM"
  },
  {
    "MOLECULE": "O=C([CH-]C(=O)c1ccccc1)c1ccccc1.O=C([CH-]C(=O)c1ccccc1)c1ccccc1.[O]=[U+2]=[O]",
    "MEASUREMENT TYPE": "TGI",
    "VALUE REPORTED": "13.1 µM"
  }
]

###

# Test system: K-562 leukemia
# TEST NAME: NCI tumour cell line growth inhibition, 48 h

[
  {
    "COMPOUND": "COC(=O)[C@H](C)NC(=O)[C@H](CSC)N1C(=O)N[C@@H](C(C)C)C1=O",
    "SYSTEM": "K-562 leukemia",
    "TGI": "> 100 µM"
  },
  {
    "COMPOUND": "COc1cc(OCc2ccc3nc(OC)c(OC)nc3c2)cc(OC)c1OC",
    "SYSTEM": "K-562 leukemia",
    "TGI": "> 10 µM"
  },
  {
    "COMPOUND": "c1ccc(-c2cnc(-c3ccc(-c4ncc(-c5ccccc5)o4)cc3)o2)cc1",
    "SYSTEM": "K-562 leukemia",
    "TGI": "> 100 µM"
  },
  {
    "COMPOUND": "O=C(NO)c1ccc(CN(c2cnccn2)c2cnccn2)cc1",
    "SYSTEM": "K-562 leukemia",
    "TGI": "> 100 µM"
  },
  {
    "COMPOUND": "COC1=C(Br)C(=O)c2nc(C)ccc2C1=O",
    "SYSTEM": "K-562 leukemia",
    "TGI": "> 27.8 µM"
  },
  {
    "COMPOUND": "O=[N+]([O-])c1ccc(C2=Nc3ccccc3SC(c3ccccc3)C2)cc1 (stereo not drawn)",
    "SYSTEM": "K-562 leukemia",
    "TGI": "67.6 µM"
  },
  {
    "COMPOUND": "Cc1c(C#N)c(N)n(C2OCC(O)C(O)C2O)c(=S)c1C#N (stereo not drawn)",
    "SYSTEM": "K-562 leukemia",
    "TGI": "> 100 µM"
  },
  {
    "COMPOUND": "Clc1cc(Cl)cc(Nc2ccc3cc(OCCCN4CCOCC4)ccc3n2)c1",
    "SYSTEM": "K-562 leukemia",
    "TGI": "4.42 µM"
  }
]

###

# Tested on: HCT-116 colon
# TEST NAME: NCI tumour cell line growth inhibition, 48 h

[
  {
    "COMPOUND": "Cc1ccc(Nc2nnc(-c3ccc4c(c3)OCO4)o2)c(C)c1",
    "TGI": "> 100 µM"
  },
  {
    "COMPOUND": "CSC(SC)=C1C(=O)N(c2ccccc2)N=C1C",
    "TGI": "54 µM"
  },
  {
    "COMPOUND": "C[C@]12CC[C@@H]3c4ccc(O)c([N+](=O)[O-])c4CC[C@H]3[C@@H]1CC[C@@H]2NS(=O)(=O)c1cccc(Br)c1",
    "TGI": "4.17 µM"
  },
  {
    "COMPOUND": "Cc1cc(/N=C/c2ccc(C#N)cc2)n(-c2ccccc2)n1",
    "TGI": "> 100 µM"
  },
  {
    "COMPOUND": "S=C1SC2=Nc3ccccc3CN2C2=NCCN12",
    "TGI": "> 100 µM"
  },
  {
    "COMPOUND": "C[C@H]1CCC/C=C/[C@@H]2C[C@H](O)C[C@H]2[C@H](O)[C@@H](SCC(O)CO)CC(=O)O1 (some centres undefined)",
    "TGI": "> 100 µM"
  },
  {
    "COMPOUND": "CCOC(=O)C(C)c1nc2c(Cl)c3ncccc3cc2[nH]c1=O (centres undefined)",
    "TGI": "> 100 µM"
  },
  {
    "COMPOUND": "c1ccc(-c2cnc(-c3ccc(-c4ncc(-c5ccccc5)o4)cc3)o2)cc1",
    "TGI": "> 100 µM"
  },
  {
    "COMPOUND": "CC(C)(C)c1ccc(OCC(=O)O)c(Cl)c1",
    "TGI": "> 100 µM"
  }
]
